system: MS2 coat protein; assay: apparent KD of MS2 coat protein; designed switch direction (-1 OFF switch, 1 ON switch): -1; higher = weaker reporter binding; conditions: input ligand: none
Record TRUE whenever apparent KD of MS2 coat protein is at 70 nM or higher; record FALSE when lower.

Some solved cases for reference:
item_sequence | target_desc | category_label
AAUAACAAGCCGAUCCUCCACAUGAGGAUCACCCAUGUGUUCGUCUUGUAAAGUACUAUCACGAAAGUGAUAGUACA (Eterna round: R97, puzzle: Sensor, turn-off variant 1) | MS2 coat protein | FALSE
ACUGUGUAAGGAUAUGUGAUACACUGCUAUUUAGGUGAGUCACAGAAGGUACAUGAGGAUCACCCAUGUCCGGG [Eternabot (L2) Solution 32] (Eterna round: R97, puzzle: Exclusion 4) | MS2 coat protein | TRUE
CCAAGCUUAUUCAUUAACCACAUGAGGAUCACCCAUGUAUAGGCAAUUAUGACUGGGCUCUGUGGUGCUCGUCUUAU [Sensor-V1 #27] (Eterna round: R97, puzzle: Sensor, turn-off variant 1) | MS2 coat protein | TRUE

Kindly determine if apparent KD of MS2 coat protein recorded for UGAUCUAGCGGAGGAUAUACAUGAGGAUCACCCAUGUAGACUCUAUGACCGUAGUCGUGGAGUGUGUAGAAGGCCGCUAGAUCU [JL ENG2 3.74] (Eterna round: R96, puzzle: Exclusion NG 2) is above or exactly 70 nM. FALSE

Kindly determine if apparent KD of MS2 coat protein recorded for UCCGGGUUUGUAGGAUAUAGUCUGCUUUGCAGACUAGAAGGACAUGAGGAUCACCCAUGUUGUGGAAAUUUGGGAUGUUCCUUU [random2] (Eterna round: R96, puzzle: Exclusion NG 1) is above or exactly 70 nM. TRUE

Kindly determine if apparent KD of MS2 coat protein recorded for GGAAAAAUAUAGGAUAUGGGAGGGAGGACCGAACCAGAAGGAUAGACAUGAGGAUCACCCAUGUAAAGAUCCUC [AK-MS2ROC-r4-exclusion6-6] (Eterna round: R97, puzzle: Exclusion 6) is above or exactly 70 nM. TRUE

Kindly determine if apparent KD of MS2 coat protein recorded for AAUUAGCAAGCGAGAUCCCACAUGAGGAUCACCCAUGUGCUCGUCUUAUAAAAGACUGUGACGAUAGUCACGGUCAC [Mat - Sensor, turn-off var - Eli Mod - D25] (Eterna round: R97, puzzle: Sensor, turn-off variant 1) is above or exactly 70 nM. FALSE

Kindly determine if apparent KD of MS2 coat protein recorded for AGCUUUUUGCUCGUCUUAUACAUGAGGAUCACCCAUGUAUUGGACCACAUCGAUAGAUGUGGACCAAGAAGCAUGGG [Omdei Mir OFFv1 C1] (Eterna round: R97, puzzle: Sensor, turn-off variant 1) is above or exactly 70 nM. TRUE

----------
apparent KD of K4 kissing-loop reporter overview
system: K4 kissing-loop RNA reporter; assay: apparent KD of K4 kissing-loop reporter; higher = weaker reporter binding; conditions: Eterna round: R107; input ligand: none
A number alone suffices; assume nM.

Solved cases below.
item_sequence | unit_tag | value_measured
AGAGUACGAAAGUACUCCUCUACACACUGACGAGGACCGGUACGGCCGCCACUCGAGUUGAGUGAUGUUCGAUAGUGUGUAGAGA [Omei KL Tryp A SS C v3] | nM | 97
AAAAUAAGCCAGUGAUGUUGGUGUCCAGAUACCAGCGACGAAAGUCGCCCUUGGCAGCUGUGGACGUACAAAAUAAGUACGUCCU | nM | 1140
GCCAGAGCGCGAAGGAGCGCCGUGACAGGUUGCUGCCGUGGGCAGUGAUGUUGCUCAAUCUGGCAGGUAGGUCGCGUGCUCUGGC | nM | 273
AAGCAGUCACUCGACGCCAUCGAAGAUGGGCGAGGACCGGUACGGCCGCCACUCGGAGUGAUGUUCUGAUGACUGCAAAAUAAAA [MatMod 8 - Jieux - Exclusion - Tryptophan A] | nM | 118
UAGUCCUAGUGAUGGUUAUCACGUGGUGGGCGAGGACCGGUACGGCCGCCACUCGACUAUGCAGUGAUGUUGCAAUCCGGACAAU [Exclusion - Tryptophan A (Freestyle 16)] | nM | 423

Answer with reported apparent KD of K4 kissing-loop reporter of UUUAACGAGUGAUGUUCGAAGAGUAAUGGUGAGGAUAUCGAUUUUUCGAGAAGGCACCUCGAAGUGAUACGAAAGUAUCGCUUCG [FMN A 5] 266

Answer with reported apparent KD of K4 kissing-loop reporter of UCCCGAGUGAUGUUCGGCGCGGUCACCGAAGGAGCGGGCGAAAGCCCAGGUAGGUCGCGGUAGCGGAGUGAUUCUCCGCGACCGC [Same State Arginine A GF 24] 286

Answer with reported apparent KD of K4 kissing-loop reporter of AAGUGUGUGGCGGCCGCCACUAGGAUCCAGUGAUGUUGGAGAUAUCUCGUAAGAGAUAUCCGCCAUAGGACCGGGCCAUAUAGAA [Same State - Tryptophan B (Freestyle 16)] 388

Answer with reported apparent KD of K4 kissing-loop reporter of GGAUAGGACAUAGGAUAUGGGCUAGGCAAGAAUAACUUGUCUAGCAAAUCCAUGAGGAGUGAUGUUCCAGAAGGAUGUCCUAUCG [FmnBX 1 U11+A75] 112

Answer with reported apparent KD of K4 kissing-loop reporter of CCAUUCAUUUACGAUACCAGUCUAAUAUAUUGAAUCAAAACCCUCGCCGAGUGAUGUUCGGACCCUUGGCAGCGUCUGCGAGAGG [ddrdkmullin] 677

Answer with reported apparent KD of K4 kissing-loop reporter of CACCCAGUCCUCGAUACCAGACUGGCACGUCAAAAGGUCCAGUGAUGUUGAGCCUAACAAGUCCCUUGGCAGCGACCAGUGUAUU [theeternabot_exclusion_KL_Theo_B_30] 729

Answer with reported apparent KD of K4 kissing-loop reporter of GGAUAGGACAGAGGAUAUCCUUGAGGCAAGAAACUUGUCUCUAAAGGAUGAAUCCUAGUGAUGUUAGGAGAAGGCUGUCCUAUCG [FmnBX 14 - #SwitchBubble #StaticStem #Palindromic] 85

----------
apparent KD of MS2 coat protein overview
tested on: MS2 coat protein; test: apparent KD of MS2 coat protein; designed switch direction (-1 OFF switch, 1 ON switch): -1; higher = weaker reporter binding; details: Eterna round: R95; input ligand: microRNA oligo, concentration not stated
A number alone suffices; assume nM.

item_sequence | apparent KD of MS2 coat protein (nM)
GCCGAUUAAGUGAGGAUAUACCUAUGGAUACAUAGGUAGAAGGCACAUGAGGAUCACCCAUGUUCCUCAUCGGC [Fiskers BMX 4 - 11] (puzzle: Brourd's mod of Exclusion 4) | 19.3
UUGGAACGAGGAUAUCGAUGGUGGAACAUGAGGAUCACCCAUGUAUGAGAUAGUGUAGUUCGAGAAGGCGUUAAGU [JR_E5_Sub054] (puzzle: Exclusion 5) | 40.3

Answer with reported apparent KD of MS2 coat protein of ACGUAUAGAGGAUAUAGUGAAUAUUACAUGAGGAUCACCCAUGUUCUUCAAAGCAUAUUCCUAGAAGGCUGAUGAA [EX-5 Malc#13] (puzzle: Exclusion 5) 47.5

Answer with reported apparent KD of MS2 coat protein of AAUAACAGAGGAUAUACUGUUUUAUGUGUUUAUUAUUUUGAACAUGAGGAUCACCCAUGUAGAAGGCUGAAUGA [JMF 63] (puzzle: Exclusion 2) 27.6

Answer with reported apparent KD of MS2 coat protein of AAACUAGUAGAGGAUAUUCCAGGCAGUGUUUGAGAAGAAGGCUACACAUGAGGAUCACCCAUGUGGCCUGGUGG [Riedbi] (puzzle: Exclusion 6) 12.8

Answer with reported apparent KD of MS2 coat protein of GAUUAUGCGAGCUUUAGGGACAUGAGGAUCACCCAUGUUCGUCUUAUUAGUCUGAGUACACUGACAUACCUAAAUCU [JMF 62] (puzzle: Sensor v3, turn-off variant 1) 14.8

----------
tested on: K4 kissing-loop RNA reporter; assay: apparent KD of K4 kissing-loop reporter; higher = weaker reporter binding; details: Eterna round: R107; input ligand: tryptophan 2.4 mM;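 further: bound reporter read as fluorescence of individual clusters on recovered sequencing chips by microscopy, with normalized cluster intensities fitted with a binding model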
metric_name: apparent KD of K4 kissing-loop reporter (nM)
A number alone suffices; assume nM.

Solved cases below.
item_sequence | unit_tag | apparent KD of K4 kissing-loop reporter
GAUACCACGUUAGAUACCAGCUUCGUUGACUUGGGUAGUAGUCGAACUUCAGUGAUGUUGAGCCCUUGGCAGCUACAGAUGUGCG [theeternabot_exclusion_KL_Theo_B_38] | nM | 624
UGACUGGACUGAAGGAGCGUUGAAGGAGCGUAAGUAGUGAUGUUGCUUACAGGUAGGUCGCAGCAGGUAGGUCGCAGUCUAGUCU | nM | 52.6

Answer with reported apparent KD of K4 kissing-loop reporter of UGACUGGAUGGAAGGAGCGCUAAACUCCUAGUGAUGUUAGGGAAACGAGACAAAGUCUCGAGGCAGGUAGGUCGCCAUCUAGUCU [FiskerMod 15 - Jieux - Same State - Arginine B] 155

Data origin, for the record: the supplement of paper PMC9170038
